Species: Homo sapiens
assay-comment: To identify inhibition of the IFN signalling (Jak-Stat) pathway via expression of an eGFP reporter gene under the control of an IFN-stimulated response element (ISRE) containing MxA promoter.
Format: functional
Set-up: scale not given: direction of the effect not stated beside the values
conditions: 30 µM
readout-type: Percent Effect

1) Cc1ccc(C(=O)NC2CCN(Cc3noc(CC(C)C)n3)CC2)s1	29.7%
2) CN(C)S(=O)(=O)N1CC[C@@H]2CN(Cc3cnn(C)c3)C[C@@H]2C1	33.3%
3) O=C(c1ccn(-c2ccccc2Cl)n1)N1CCSCC1	20.1%
4) O=C(C1SCCc2sccc21)N1CCN(CCO)CC1 (stereo unspecified)	11.7%
5) Cc1nc(CCNC(=O)N2CCC(Cc3cnn(C)c3)C2)cs1 (stereo unspecified)	-10.1%
6) CN1CC(=O)N(c2cccc(F)c2)CC12CCNC2 (stereo unspecified)	12.5%
